Reported pKd values follow for various binders
biological target: Biotinylated SARS-CoV-2 S1 protein (ACRO, S1N-C82E8) (UniProt P0DTC2 16-685); assay: BLI
The read-out pKd is expressed as -log10 of concentration in moles per litre.

BINDER	pKd
Ab 20 (scFv, V domains shown) VH: QVQLVQSGGGSVKPGGSLRLSCAASGYRLSDYYMHWVRQAPGKGLEWVANIKQDGSEKYYVDSVKGRFTISRDNAKNSLYLQMNSLRAEDTAVYYCARVRGWSRGYFDYWGQGTLVTVSS VL: NFMLTQPHSVSESPGKTVTISCTGSSGSIASNYVQWYQQRPGSAPTTVIYEDNQRPSGVPDRFSGSIDSSSNSASLLISGLKTEDEADYYCQSYDSSNHWVFGGGTKLTVL	8.30

Now for another entry.
Exercise: Param item = Ab_16 (scFv, V domains shown) VH: QVQLVQSGGGVVQPGRSLRLSCAASGFTFSNYGMHWVRQAPGKGLEWVALIWERGSKKDYADSVKGRFTVSRDNSKNTLYLQMNSLRPEDTAVYFCAREGISMTGAEYFQHWGQGTLVTVSS VL: QSVLTQPPSVSGSPGQRVTMSCTGSSSNIGAGYDVHWYQQVPGAAPRLLIYGTNNRPSGVPDRFSGSKSGTSASLTITGLQAEDEADYYCQSYDNSLTDPYVFGTGTKVTVL ; retrieve measured pKd.
Solution: 8.66
